Molecular target: importin α2 (IMPα2), Arabidopsis thaliana, recombinant (Arabidopsis thaliana, UniProt F4JL11 1-535)
Sequence (F4JL11 whole entry): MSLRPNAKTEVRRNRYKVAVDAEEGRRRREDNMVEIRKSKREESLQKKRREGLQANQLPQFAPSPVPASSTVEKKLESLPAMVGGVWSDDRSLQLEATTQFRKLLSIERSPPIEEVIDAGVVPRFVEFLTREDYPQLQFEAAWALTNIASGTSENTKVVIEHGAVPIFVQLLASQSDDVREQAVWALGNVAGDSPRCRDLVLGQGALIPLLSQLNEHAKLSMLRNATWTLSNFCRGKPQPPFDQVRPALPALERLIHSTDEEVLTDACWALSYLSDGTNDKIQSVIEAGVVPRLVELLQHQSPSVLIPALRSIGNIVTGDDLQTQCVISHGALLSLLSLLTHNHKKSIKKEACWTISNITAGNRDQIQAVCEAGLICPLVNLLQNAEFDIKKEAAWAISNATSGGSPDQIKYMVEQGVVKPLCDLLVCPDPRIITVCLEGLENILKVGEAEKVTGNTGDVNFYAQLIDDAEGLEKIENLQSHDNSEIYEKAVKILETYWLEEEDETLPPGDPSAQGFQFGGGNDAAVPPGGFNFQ
Experiment: FP
Ends that are not written are not given here. * marks the point of attachment. 5‑TAMRA = 5-carboxytetramethylrhodamine, N-terminal label, CN(C)c1ccc2c(-c3ccc(C(=O)*)cc3C(=O)[O-])c3ccc(N(C)C)cc3[o+]c2c1
endpoint-label: Kd (µM)
Numbers only, in µM.

Lookup: Please look up its Kd: {5‑TAMRA}-LKRYKRRL [TAMRA‐NOP‐1 (EIN2 NLS peptide, N‐terminally labeled with 5‐TAMRA)]
Found: 5.8

These data points were gathered from paper PMC12871931.
